Just for reference, ChEMBL document CHEMBL3407442 is where these values come from.

Collected CC50 values appear next to each entry.
# Run description: Cytotoxicity against human Huh7.5 cells by MTS assay
# Type: cell-based, Huh-7
Value kind: CC50

>>> result("COc1ccc2c(c1)CCC(c1ccccc1OC)C2=O (stereo not drawn)")
"152 µM"
>>> result("COc1ccccc1C1CCc2c(OC)cccc2C1=O (stereo not drawn)")
"> 200 µM"
>>> result("COc1ccc(C2CCc3ccccc3C2=O)c(OC)c1 (stereo not drawn)")
"63.6 µM"

###

# Tested on: Hepatitis C virus
# Run description: Antiviral activity against HCV genotype 1b infected in human Huh7/Rep-Feo1b replicon cells assessed as inhibition of viral viral RNA replication incubated for 48 hrs by luciferase reporter gene assay
# Assay type: functional, cell-based, Hepacivirus hominis
# Condition context: Huh-7, 48 h
pEC50: −log10 of the molar value.
Output Fulfilled for pEC50 not less than 5; output Not fulfilled otherwise.

>>> class_assignment("COc1ccccc1C1CCc2ccccc2C1=O (stereo not drawn)")
"Not fulfilled"
>>> class_assignment("COc1ccc(C2CCc3ccc(OC)cc3C2=O)c(OC)c1 (stereo not drawn)")
"Not fulfilled"
>>> class_assignment("COc1ccc(C2CCc3ccccc3C2=O)c(OC)c1 (stereo not drawn)")
"Not fulfilled"
>>> class_assignment("COc1ccc(C2CCc3cc(OC)c(OC)cc3C2=O)c(OC)c1 (stereo not drawn)")
"Fulfilled"
>>> class_assignment("COc1ccccc1C1CCc2c(OC)cccc2C1=O (stereo not drawn)")
"Not fulfilled"
>>> class_assignment("COc1cc2c(cc1OC)C(=O)C(c1ccccc1OC)CC2 (stereo not drawn)")
"Not fulfilled"
>>> class_assignment("COc1ccc(O)c2c1C(=O)C(c1ccccc1OCc1ccccc1)CC2 (stereo not drawn)")
"Fulfilled"
>>> class_assignment("COc1ccc2c(c1)C(=O)C(c1ccccc1OC)CC2 (stereo not drawn)")
"Not fulfilled"
